test system: IGROV-1; experiment: Growth inhibition of human IGROV1 cells assessed as growth inhibition at 10 uM by sulforhodamine B assay; assay type: functional; details: read-out: GI
Decide by inhibition of growth at 10 µM: equal to or exceeding 30% means class 1, less means class 0.

Test smiles	Assigned label
C/C=C(/C)C(=O)O[C@@H]1CC(C)(C)C[C@H]2C3=CC[C@@H]4[C@@]5(C)CCC(=O)C(C)(C)[C@@H]5CC[C@@]4(C)[C@]3(C)CC[C@@]12C(=O)O	class 0
CC(C)=CC(=O)O[C@@H]1CC(C)(C)C[C@H]2C3=CC[C@@H]4[C@@]5(C)CC[C@H](O)C(C)(C)[C@@H]5CC[C@@]4(C)[C@]3(C)CC[C@@]12C(=O)O	class 0
CC1(C)C[C@@H](O)[C@]2(C(=O)O)CC[C@]3(C)C(=CC[C@@H]4[C@@]5(C)C/C(=C\C=C\c6ccccc6)C(=O)C(C)(C)[C@@H]5CC[C@]43C)[C@@H]2C1	class 1
C/C=C(/C)C(=O)O[C@@H]1CC(C)(C)C[C@H]2C3=CC[C@@H]4[C@@]5(C)CC[C@H](O)C(C)(C)[C@@H]5CC[C@@]4(C)[C@]3(C)CC[C@@]12C(=O)O	class 1
CC1(C)C[C@@H](O)[C@]2(C(=O)O)CC[C@]3(C)C(=CC[C@@H]4[C@@]5(C)CCC(=O)C(C)(C)[C@@H]5CC[C@]43C)[C@@H]2C1	class 0
COc1cc(/C=C2\C[C@]3(C)[C@H]4CC=C5[C@@H]6CC(C)(C)C[C@@H](O)[C@]6(C(=O)O)CC[C@@]5(C)[C@]4(C)CC[C@H]3C(C)(C)C2=O)ccc1O	class 0
CC(C)=CC(=O)O[C@@H]1CC(C)(C)C[C@H]2C3=CC[C@@H]4[C@@]5(C)CCC(=O)C(C)(C)[C@@H]5CC[C@@]4(C)[C@]3(C)CC[C@@]12C(=O)O	class 1
CC1(C)C[C@@H](O)[C@]2(C(=O)O)CC[C@]3(C)C(=CC[C@@H]4[C@@]5(C)CC[C@H](O)C(C)(C)[C@@H]5CC[C@]43C)[C@@H]2C1	class 0

###

Measured growth at 0.1 µM, listed per entry for reference.
system: A549; test: Growth inhibition of human A549/ATCC cells assessed as cell growth at 10^-7 M by sulforhodamine B assay; type: functional; settings: read-out: Activity

Test smiles	growth at 0.1 µM
CC1(C)C[C@@H](O)[C@]2(C(=O)O)CC[C@]3(C)C(=CC[C@@H]4[C@@]5(C)C/C(=C\C=C\c6ccccc6)C(=O)C(C)(C)[C@@H]5CC[C@]43C)[C@@H]2C1	95%
CC(C)=CC(=O)O[C@@H]1CC(C)(C)C[C@H]2C3=CC[C@@H]4[C@@]5(C)CC[C@H](O)C(C)(C)[C@@H]5CC[C@@]4(C)[C@]3(C)CC[C@@]12C(=O)O	79%
C/C=C(/C)C(=O)O[C@@H]1CC(C)(C)C[C@H]2C3=CC[C@@H]4[C@@]5(C)CC[C@H](O)C(C)(C)[C@@H]5CC[C@@]4(C)[C@]3(C)CC[C@@]12C(=O)O	90%
CC(C)=CC(=O)O[C@@H]1CC(C)(C)C[C@H]2C3=CC[C@@H]4[C@@]5(C)CCC(=O)C(C)(C)[C@@H]5CC[C@@]4(C)[C@]3(C)CC[C@@]12C(=O)O	88%
C/C=C(/C)C(=O)O[C@@H]1CC(C)(C)C[C@H]2C3=CC[C@@H]4[C@@]5(C)CCC(=O)C(C)(C)[C@@H]5CC[C@@]4(C)[C@]3(C)CC[C@@]12C(=O)O	90%
